Values from paper PMC10515640

Percentage (%) bound of compound to 14-3-3σ, CRAF 24h for assorted compounds
Molecular target: 14-3-3σ/C-RAF (Homo sapiens)
Construct: The 14-3-3 σ isoform (full-length for mass spectrometry and fluorescence anisotropy assays, ΔC for crystallography); made in house; host or cells: E. coli Rosetta 2(DE3)pLysS, pPROEX HTb vector
Sequence (P31947 whole entry, canonical isoform): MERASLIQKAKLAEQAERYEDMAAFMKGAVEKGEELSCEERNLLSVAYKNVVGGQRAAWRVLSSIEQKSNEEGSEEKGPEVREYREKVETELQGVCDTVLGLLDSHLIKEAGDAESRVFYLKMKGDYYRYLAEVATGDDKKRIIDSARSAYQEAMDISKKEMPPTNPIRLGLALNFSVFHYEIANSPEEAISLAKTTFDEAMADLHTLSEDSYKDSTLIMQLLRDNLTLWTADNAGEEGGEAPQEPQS
Assay: Mass spectrometry dose response, compound binding to 14-3-3σ in the presence of C-RAF phosphopeptide
Details: 100 nM compound, 100 nM 14-3-3σ, C-RAF peptide 18 µM, head prints 24h
Text: Two orthogonal assays were developed for screening. For the primary assay, mass spectrometry (MS) was used to monitor the formation of the covalent bond between the compound and the native cysteine (Cys38 on 14-3-3σ) (Figure 1D). […] As a secondary assay, fluorescence anisotropy (FA) was used. […]
Your answer should be a plain number; it is taken to be in %.

Cl.NC1CCC(Oc2ccccc2)(C(=O)N2CCC(CNC(=O)CCl)CC2)CC1 (stereo not shown)	0
C=CS(=O)(=O)NCC1CCN(C(=O)C2(Nc3ccc(Cl)cc3)CCOCC2)CC1	0

Given NC1CCC(Oc2ccc(Cl)cc2)(C(=O)N2CCC(CNC(=O)CCl)CC2)CC1 (stereo not shown) , state its recorded Percentage (%) bound of compound to 14-3-3σ, CRAF 24h.
2.6
